Where do these numbers come from? They come from patent US11384055B2.

target: Human GO (Homo sapiens); construct: purchased Novus Biologicals NBP1-72412; test: GO enzymatic assay (coupled fluorescence/HRP assay, glycolate substrate); type: biochemical; details: Table 2; read-out: Range (range of IC50 values calculated from the enzymatic assays)
Sequence (Q9UJM8 whole entry): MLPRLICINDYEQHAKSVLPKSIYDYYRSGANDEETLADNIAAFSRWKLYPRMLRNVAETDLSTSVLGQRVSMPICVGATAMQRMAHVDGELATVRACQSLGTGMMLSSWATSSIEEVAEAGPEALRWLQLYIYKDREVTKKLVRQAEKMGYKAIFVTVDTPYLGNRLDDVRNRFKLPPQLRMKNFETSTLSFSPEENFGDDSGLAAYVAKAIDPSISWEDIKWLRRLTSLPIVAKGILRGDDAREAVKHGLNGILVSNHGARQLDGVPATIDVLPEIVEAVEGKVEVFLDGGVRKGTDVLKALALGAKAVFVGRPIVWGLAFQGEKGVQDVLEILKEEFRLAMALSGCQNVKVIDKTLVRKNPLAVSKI
Examples of molecules with documented IC50 follow.

# MOLECULE, IC50
records = [
    ("O=C(OCOC(=O)C1CCCCC1)c1[nH]nnc1O[C@H]1CC[C@H](c2ccc(OC(F)(F)F)cc2)CC1", "> 10000 nM"),
    ("CN1CCCc2cc(-c3ccc(Oc4nn[nH]c4C(=O)O)cc3)ccc21", "< 100 nM"),
    ("O=C(O)c1[nH]nnc1SC1CCN(c2ccc(OC(F)(F)F)c(Cl)c2)CC1", "< 100 nM"),
    ("O=C(O)c1[nH]nnc1SC1CCN(c2cc(Cl)cc(OC(F)(F)F)c2)CC1", "< 100 nM"),
    ("CC1CCCCN1c1ccc(-c2ccc(Sc3nn[nH]c3C(=O)O)cc2)cc1 (stereo not shown) [Compound 349, 2,2,2-trifluoroacetate]", "< 100 nM"),
    ("O=C(O)c1[nH]nnc1-c1cc(Cl)c(Cl)cn1", "100 to 1000 nM"),
    ("O=C(O)c1[nH]nnc1CN(Cc1ccccc1)c1ccc(C2CCCCC2)cc1", "1000 to 10000 nM"),
    ("O=C(O)c1[nH]nnc1-c1cc2ccc(F)cc2cn1 [Compound 210, 2,2,2-trifluoroacetate]", "100 to 1000 nM"),
    ("CC(C)(C)C(=O)OCOC(=O)c1[nH]nnc1OC1CCc2cc(Cl)c(Cl)cc2C1 (stereo not shown)", "1000 to 10000 nM"),
    ("O=C(O)c1[nH]nnc1Oc1ccc(C(F)(F)F)c(OCC2CC2)c1", "< 100 nM"),
    ("O=C(O)c1[nH]nnc1S[C@H]1CC[C@@H](c2ccc(Cl)c(Cl)c2)CC1 [Compound 345, 2,2,2-trifluoroacetate]", "< 100 nM"),
    ("O=C(O)c1[nH]nnc1OC1Cc2cc(F)c(F)cc2C1", "< 100 nM"),
    ("O=C(O)c1[nH]nnc1Oc1ccc(-c2cccc(N3CCCCC3)c2)cc1 [Compound 220, 2,2,2-trifluoroacetate]", "< 100 nM"),
    ("O=C(O)c1c(Oc2ccc(Cl)c(Cl)c2)nnn1COC(=O)C1CCCCC1", "100 to 1000 nM"),
    ("O=C(O)c1[nH]nnc1SC1CCN(c2ccc(Cl)c(Cl)c2)CC1 [Compound 323, 2,2,2-trifluoroacetate]", "< 100 nM"),
    ("O=C(O)c1[nH]nnc1Nc1ccc(-c2ccc(Cl)cc2)c(Cl)c1", "< 100 nM"),
    ("O=C(O)c1[nH]nnc1-c1cc2cc(F)ccc2cn1 [Compound 213, 2,2,2-trifluoroacetate]", "1000 to 10000 nM"),
    ("CC(C)C(=O)OCOC(=O)c1[nH]nnc1Oc1ccc2c(c1)CCCC2", "100 to 1000 nM"),
    ("O=C(O)c1[nH]nnc1Oc1cc(Cl)cc(OCC2CC2)c1 [Compound 289, 2,2,2-trifluoroacetate]", "< 100 nM"),
    ("O=C(O)c1[nH]nnc1Sc1ccc(-c2cccc(C3CCCCC3)c2)cc1", "< 100 nM"),
    ("N#Cc1ccc(N2CCC(Oc3nn[nH]c3C(=O)O)CC2)cc1 [Compound 359, 2,2,2-trifluoroacetate]", "< 100 nM"),
    ("NC(=O)c1ccc([C@H]2CC[C@@H](Oc3nn[nH]c3C(=O)O)CC2)cc1 [Compound 363, 2,2,2-trifluoroacetate]", "< 100 nM"),
]
